Value source: PubChem BioAssay (NCI)

System: HL-60(TB) leukemia
PROCEDURE DETAILS: NCI tumour cell line growth inhibition, 48 h
# TGI listing for each entry below
READOUT KIND: TGI

MOLECULE: COc1ccc(/C=N/NS(=O)(=O)c2ccc(/C=C3\NC(=O)NC3=O)cc2)cc1
RESULT: > 100 µM

MOLECULE: CCP(C)(=O)CC
RESULT: > 100 µM

MOLECULE: O=c1c2ccccc2nc(-c2ccccc2)n1/N=C/c1ccccc1[N+](=O)[O-]
RESULT: > 100 µM

MOLECULE: [pH]1p2[pH]p3p1p3[pH]2.c1cc[c]([Ge]([c]2ccccc2)[c]2ccccc2)cc1.c1cc[c]([Ge]([c]2ccccc2)[c]2ccccc2)cc1.c1cc[c]([Ge]([c]2ccccc2)[c]2ccccc2)cc1
RESULT: 57.3 µM

MOLECULE: Cc1cccc2c(N)c3cccc(C(=O)NCCNCCN)c3nc12
RESULT: > 100 µM

MOLECULE: Cn1cc(Nc2nccc(-c3ccc4c(c3)CN(C3COC3)CC[C@H]4NC(=O)c3cn(C(C)(C)C)nn3)n2)cn1
RESULT: > 100 µM

MOLECULE: C/C(=N\O)C1CC(CC(=O)O)C1(C)C (configuration not stated)
RESULT: > 100 µM

MOLECULE: CC1=C(C)C2(C#N)C(=O)N3C(=NC(c4ccco4)NC3c3ccco3)C2(C#N)C(c2ccco2)N1 (configuration not stated)
RESULT: > 100 µM

MOLECULE: NC(N)=NCCCC(Nc1c2ccccc2nc2ccccc12)C(=O)O (configuration not stated)
RESULT: > 100 µM

MOLECULE: C=CCc1cc(OC)c(O)c(C(=O)/C=C/c2ccc(OC)c(OC)c2)c1
RESULT: 38 µM

MOLECULE: O=[N+]([O-])c1ccc(C2Nn3c(nnc3-c3cccc([N+](=O)[O-])c3)S2)cc1 (configuration not stated)
RESULT: > 100 µM

MOLECULE: NC(=S)NN=Cc1ccccc1OCc1cccc(COc2ccccc2C=NNC(N)=S)n1
RESULT: > 100 µM
